target: human ether-à-go-go-related gene (hERG) potassium channel (human, UniProt Q12809); test: primary screen, population patch clamp on CHO cells stably expressing hERG; higher = less effect of the substance;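 further: peak tail current of the secondary pulse compared with the same well before compound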
Sequence (Q12809 whole entry, looked up): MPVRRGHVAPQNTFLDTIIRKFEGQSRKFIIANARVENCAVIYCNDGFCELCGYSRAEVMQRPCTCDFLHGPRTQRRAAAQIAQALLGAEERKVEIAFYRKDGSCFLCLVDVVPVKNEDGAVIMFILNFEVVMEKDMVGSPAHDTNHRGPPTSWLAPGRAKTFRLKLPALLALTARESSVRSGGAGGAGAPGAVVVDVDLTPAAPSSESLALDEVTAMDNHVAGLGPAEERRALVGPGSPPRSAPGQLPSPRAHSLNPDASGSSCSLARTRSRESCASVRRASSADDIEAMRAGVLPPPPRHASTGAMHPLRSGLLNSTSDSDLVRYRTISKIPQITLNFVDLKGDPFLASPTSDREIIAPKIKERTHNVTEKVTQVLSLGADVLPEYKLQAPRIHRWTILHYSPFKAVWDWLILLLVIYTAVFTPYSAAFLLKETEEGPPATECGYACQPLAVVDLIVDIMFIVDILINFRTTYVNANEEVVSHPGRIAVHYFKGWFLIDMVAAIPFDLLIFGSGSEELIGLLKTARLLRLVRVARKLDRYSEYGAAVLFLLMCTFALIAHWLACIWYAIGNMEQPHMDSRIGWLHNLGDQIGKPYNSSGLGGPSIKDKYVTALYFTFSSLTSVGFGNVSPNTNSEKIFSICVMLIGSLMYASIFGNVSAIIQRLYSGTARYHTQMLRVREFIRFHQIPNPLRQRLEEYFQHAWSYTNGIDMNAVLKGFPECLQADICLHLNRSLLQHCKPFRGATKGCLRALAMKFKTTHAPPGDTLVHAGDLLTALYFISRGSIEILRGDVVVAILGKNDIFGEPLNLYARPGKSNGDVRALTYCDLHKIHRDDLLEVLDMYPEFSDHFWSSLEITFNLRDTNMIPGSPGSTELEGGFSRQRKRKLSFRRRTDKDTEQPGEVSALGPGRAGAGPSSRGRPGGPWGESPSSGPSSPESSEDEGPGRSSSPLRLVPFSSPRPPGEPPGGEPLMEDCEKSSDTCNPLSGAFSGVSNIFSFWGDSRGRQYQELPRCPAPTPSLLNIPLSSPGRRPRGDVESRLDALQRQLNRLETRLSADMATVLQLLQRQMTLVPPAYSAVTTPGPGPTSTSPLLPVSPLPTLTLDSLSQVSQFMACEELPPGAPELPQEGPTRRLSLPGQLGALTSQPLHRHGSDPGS
About 14,000 (4.5%) of roughly 310,000 compounds showed an effect of 50% or more. The effect is printed as a negative number. The entries come from a sample that favours strong results as a whole.
EXPERIMENTAL_READOUT: hERG current change (%, negative = inhibition) at 10uM (%)
Provide the reading as a plain figure in %.

Some molecules with known hERG current change (%, negative = inhibition) at 10uM results, for comparison:
1. COc1ccc(-c2noc3c2-c2nc(-c4cccc(C)c4)sc2CC3)cc1 = 7.57
2. CCN(C(=O)c1cc2c(=O)[nH]c3ccc(C)cc3c2s1)c1cccc(C)c1 = -0.235
3. CCOC(=O)c1c(NC(=O)CCN2C(=O)c3ccccc3C2=O)sc(C(=O)OC(C)C)c1C = -4.35
4. Cc1sc2nc(CSc3ccccc3)nc(N3CCN(C)CC3)c2c1C = -58.5

Input CCOC(=O)c1sc2nc(CSc3ccccc3)nc(N3CCCN(C)CC3)c2c1C.O=C(O)C(=O)O . Output hERG current change (%, negative = inhibition) at 10uM: -70

Input Cc1c(C(=O)NCC2CCCO2)oc2ccc3c(c12)C(=O)CC(C)(C)O3 (centres unmarked) . Output hERG current change (%, negative = inhibition) at 10uM: 2.71

Input Cc1sc2nc(CSc3ccccc3)nc(NCCN(C)C)c2c1C . Output hERG current change (%, negative = inhibition) at 10uM: -72.2

Input CCN1C(=O)[C@H]2[C@@H](c3ccc(C)cc3)N3C(=O)N(c4ccc(C(F)(F)F)cc4)C(=O)[C@@]3(Cc3ccccc3)[C@H]2C1=O . Output hERG current change (%, negative = inhibition) at 10uM: 16.3

###

Collected hERG current change (%, negative = inhibition) at 10uM values appear next to each entry.
target: human ether-à-go-go-related gene (hERG) potassium channel (human, UniProt Q12809); experiment: primary screen, population patch clamp on CHO cells stably expressing hERG; higher = less effect of the substance;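 further: peak tail current of the secondary pulse compared with the same well before compound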
Hit rate of the full screen: of about 310,000 compounds, about 14,000 (4.5%) showed an effect of 50% or more. The effect is printed as a negative number. This is one part of a sample in which strong results are shown more often than they occur.
Provide the reading as a plain figure in %.

1. CC(C)c1nc2cc(Cl)ccc2n(Cc2ccccc2)c1=O = 24.6

Input O=C(O)CCc1nc2cc(C(F)(F)F)ccc2n(Cc2ccccc2)c1=O . Output hERG current change (%, negative = inhibition) at 10uM: 23.8

###

Collected hERG current change (%, negative = inhibition) at 10uM values appear next to each entry.
molecular target: human ether-à-go-go-related gene (hERG) potassium channel (human); assay: primary screen, population patch clamp on CHO cells stably expressing hERG; higher = less effect of the substance;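 further: peak tail current of the secondary pulse compared with the same well before compound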
Among all 310,000 compounds or so, about 14,000 (4.5%) showed an effect of 50% or more. The effect is printed as a negative number. This excerpt belongs to a sample that is enriched for strong results.
Provide the reading as a plain figure in %.

Some compounds with known hERG current change (%, negative = inhibition) at 10uM results, for comparison:
1. CC(=O)Nc1ccc(CN2CCN(Cc3ccc(C)cc3)C(CCO)C2)cc1 (stereo not drawn) = -34.5
2. Cc1nc2scc(C)n2c(=O)c1S(=O)(=O)N1CCN(c2ccc([N+](=O)[O-])cc2)CC1 = -12
3. COc1ccc(-n2nc3c(c2NC(=O)c2ccc(Br)o2)CS(=O)(=O)C3)cc1 = -16.4
4. CC1(C)CC(C)(c2ccc(O)cc2O)N(c2cccc(Cl)c2)C(=S)N1 (stereo not drawn) = 2.04
5. COc1ccc(N(CC(=O)NCCOc2ccccc2)S(=O)(=O)c2ccc(C)cc2)cc1 = -54.8
6. COc1cccc(NC(=O)c2nnn(CC(=O)Nc3cc(C)cc(C)c3)c2N)c1 = 13.5
7. CCOC(=O)C1(Cc2ccccc2)CCCN(C2CCCC2)C1 (stereo not drawn) = -2.87
8. Cc1nc(Cl)c2c(n1)NC1=C(O2)C(=O)CCC1 = 14.7

Input COc1c(Cl)cc(Cl)cc1C(=O)Nc1ccccc1N1CCN(C(C)=O)CC1 . Output hERG current change (%, negative = inhibition) at 10uM: 3.01

Input CCc1ccc(N(CC(=O)NCc2cccnc2)S(=O)(=O)c2ccccc2)cc1 . Output hERG current change (%, negative = inhibition) at 10uM: -27

Input Cc1ccc(OCC(=O)N2CCCC(CO)(CCOc3ccccc3)C2)cc1 (stereo not drawn) . Output hERG current change (%, negative = inhibition) at 10uM: -30.4

Input COc1ccc(S(=O)(=O)N(CC(=O)NCc2ccncc2)c2ccc(C)cc2)cc1OC . Output hERG current change (%, negative = inhibition) at 10uM: -6.77

Input CCOC(=O)C1(Cc2ccccc2C(F)(F)F)CCN(C2CCSC2)CC1 (stereo not drawn) . Output hERG current change (%, negative = inhibition) at 10uM: -25.2

Input CCOC(=O)C1(Cc2ccccc2)CCN(C2Cc3ccccc3C2)CC1 . Output hERG current change (%, negative = inhibition) at 10uM: -66.4

Input COc1ccc(CC2(CO)CCN(CC3=CC[C@H]4C[C@@H]3C4(C)C)CC2)cc1 . Output hERG current change (%, negative = inhibition) at 10uM: -58.7

Input COc1ccc(S(=O)(=O)N(CC(=O)NCCCN(C)C)c2ccc(C)cc2)cc1OC . Output hERG current change (%, negative = inhibition) at 10uM: -56.6

Input COc1cccc(CC2(CO)CCN(CC3=CC[C@H]4C[C@@H]3C4(C)C)CC2)c1 . Output hERG current change (%, negative = inhibition) at 10uM: -44.2

Input CCOC(=O)C1(Cc2ccc(Cl)cc2)CCN(C2CCC2)CC1 . Output hERG current change (%, negative = inhibition) at 10uM: -44.9

Input CC(=O)N1CCN(c2ccccc2NC(=O)c2ccc3ccccc3c2)CC1 . Output hERG current change (%, negative = inhibition) at 10uM: -61.9

Input COCCn1c(SCC(=O)N2CCCCCC2)nc2c([nH]c3ccccc32)c1=O . Output hERG current change (%, negative = inhibition) at 10uM: -5.06

Input COc1cc(CN2CCN(Cc3ccc(C)cc3)C(CCO)C2)ccc1O (stereo not drawn) . Output hERG current change (%, negative = inhibition) at 10uM: -19.6

Input Cl.O=C(Nc1nnc(CCN2CCCCC2)s1)c1ccccc1 . Output hERG current change (%, negative = inhibition) at 10uM: 4.58

Input Cn1c(=O)[nH]c(=O)c2c1nc(Br)n2CCSc1nc2ccccc2o1 . Output hERG current change (%, negative = inhibition) at 10uM: -1.02

Input O=C(Nc1nnc(CCN2CCCCC2)s1)c1ccc(Br)cc1 . Output hERG current change (%, negative = inhibition) at 10uM: -51.4

Input CC(=O)N1CCN(c2ccccc2NC(=O)c2cc(Br)ccc2Cl)CC1 . Output hERG current change (%, negative = inhibition) at 10uM: -66.6

Input CCOc1ccc(S(=O)(=O)N(CC(=O)NCc2cccnc2)c2ccc(C)cc2)cc1 . Output hERG current change (%, negative = inhibition) at 10uM: -66.9

Input CN(C)S(=O)(=O)Oc1ccsc1C(=O)Nc1ccc(Cl)cc1 . Output hERG current change (%, negative = inhibition) at 10uM: -33.7

###

Collected hERG current change (%, negative = inhibition) at 10uM values appear next to each entry.
target: human ether-à-go-go-related gene (hERG) potassium channel (human, UniProt Q12809); test: primary screen, population patch clamp on CHO cells stably expressing hERG; higher = less effect of the substance;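 further: peak tail current of the secondary pulse compared with the same well before compound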
About 14,000 (4.5%) of roughly 310,000 compounds showed an effect of 50% or more. Effects have a minus sign here. Many of the other results were omitted from the sample, so strong results are more common in it than they were.
Provide the reading as a plain figure in %.

1. COC(=O)C1C(=O)NC(SC)=C(C#N)C1c1ccccc1 (stereo not drawn) = 8.09
2. O=C(CN1CCN(c2ccccc2)CC1)Nc1ccccc1Sc1ccccc1 = 9.55
3. CN(c1ccc(OCC(=O)NC2CCCC2)cc1)S(=O)(=O)c1cccs1 = -80.6
4. N#Cc1nc(Cc2cccc3ccccc23)oc1NCCN1CCOCC1 = -20.3
5. COc1ccc(-c2nc(C#N)c(NCCCN3CCOCC3)o2)cc1 = -13
6. C/C(CC1CC(COCCC(C)C)OC1=O)=N\NC(N)=S (stereo not drawn) = 4.37
7. Cc1ccc2c(c1)C1CN(C)CCC1N2C(=O)COc1ccc(N(C)C(=O)C(C)(C)C)cc1 (stereo not drawn) = -9.48
8. NC(=O)C1CCN(CC(=O)Nc2cc(Cl)ccc2Oc2ccccc2)CC1 = -67

Input N#Cc1nc(COc2ccc(Br)cc2)oc1NCCCn1ccnc1 . Output hERG current change (%, negative = inhibition) at 10uM: -63.2

Input CCOc1ccc(S(=O)(=O)N(C)c2ccc(OCC(=O)N3c4ccc(C)cc4C4CN(C)CCC43)cc2)cc1 (stereo not drawn) . Output hERG current change (%, negative = inhibition) at 10uM: -38.5

Input Cc1ccc(C)c(CN2CCC(CNC(=O)Nc3cccc(Cl)c3C)CC2)c1 . Output hERG current change (%, negative = inhibition) at 10uM: -43.1

Input COc1cccc(/C=N/NC(=O)c2nc(-c3ccccc3)cc(-c3ccccc3)n2)c1O . Output hERG current change (%, negative = inhibition) at 10uM: -9.46
